As a worked illustration, we turn to pIC50 data collected for Receptor tyrosine-protein kinase erbB-2 (Homo sapiens).
pIC50: −log10 of the molar value.
measurement_type: pIC50

The cases that follow already have their pIC50 on record.
1. C#Cc1cccc(Nc2ncnc3cc4c(cc23)N(C(=O)/C=C/CN(CC)CC)CCO4)c1 | 6.60
2. C#Cc1cccc(Nc2ncnc3cc4c(cc23)N(C(=O)/C=C/CN2CCCCC2)CCO4)c1 | 6.54
3. C#Cc1cccc(Nc2ncnc3cc4c(cc23)N(C(=O)/C=C/CN(C)C)CCO4)c1 | 6.60

1 = C#Cc1cccc(Nc2ncnc3cc4c(cc23)N(C(=O)/C=C/CN2CCN(C)CC2)CCO4)c1
2 = C#Cc1cccc(Nc2ncnc3cc4c(cc23)N(C(=O)/C=C/CN2CCC(C)CC2)CCO4)c1
Looking only at measured pIC50, which entry is lower, 1 or 2 ? Give the label under which the chosen entry appears. 1

====

# system_tested: Epidermal growth factor receptor (Homo sapiens, UniProt P00533)
# Sequence (P00533 whole entry): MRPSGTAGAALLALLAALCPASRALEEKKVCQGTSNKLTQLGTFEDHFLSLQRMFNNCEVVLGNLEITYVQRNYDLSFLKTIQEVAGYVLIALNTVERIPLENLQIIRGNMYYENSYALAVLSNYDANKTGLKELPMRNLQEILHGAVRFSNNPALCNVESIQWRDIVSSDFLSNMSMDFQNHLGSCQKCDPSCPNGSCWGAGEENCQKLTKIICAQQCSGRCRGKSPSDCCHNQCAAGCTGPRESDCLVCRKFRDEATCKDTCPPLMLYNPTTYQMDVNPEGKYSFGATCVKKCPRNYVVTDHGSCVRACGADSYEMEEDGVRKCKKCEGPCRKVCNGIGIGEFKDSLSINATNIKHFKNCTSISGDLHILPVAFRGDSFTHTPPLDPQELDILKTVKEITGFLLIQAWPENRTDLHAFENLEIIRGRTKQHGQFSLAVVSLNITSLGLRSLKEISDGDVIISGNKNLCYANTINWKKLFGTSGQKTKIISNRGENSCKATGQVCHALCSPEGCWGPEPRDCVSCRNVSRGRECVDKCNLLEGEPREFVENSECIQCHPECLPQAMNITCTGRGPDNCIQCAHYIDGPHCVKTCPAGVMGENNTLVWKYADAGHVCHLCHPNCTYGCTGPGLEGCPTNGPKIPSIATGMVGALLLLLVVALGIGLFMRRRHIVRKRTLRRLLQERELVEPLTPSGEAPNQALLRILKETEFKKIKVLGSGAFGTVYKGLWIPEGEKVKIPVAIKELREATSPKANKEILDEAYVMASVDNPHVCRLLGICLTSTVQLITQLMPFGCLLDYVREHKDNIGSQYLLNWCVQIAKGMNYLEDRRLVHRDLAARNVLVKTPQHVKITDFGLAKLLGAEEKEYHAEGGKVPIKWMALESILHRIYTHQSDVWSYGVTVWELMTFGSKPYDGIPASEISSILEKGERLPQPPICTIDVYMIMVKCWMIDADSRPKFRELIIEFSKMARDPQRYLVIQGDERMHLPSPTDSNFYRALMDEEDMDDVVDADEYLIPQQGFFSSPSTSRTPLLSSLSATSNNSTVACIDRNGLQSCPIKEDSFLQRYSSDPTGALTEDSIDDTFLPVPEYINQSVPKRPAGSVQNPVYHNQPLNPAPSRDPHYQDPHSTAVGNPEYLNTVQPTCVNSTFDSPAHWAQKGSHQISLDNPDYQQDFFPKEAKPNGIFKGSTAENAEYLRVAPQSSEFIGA
pIC50: −log10 of the molar value.
measurement_type: pIC50

1. C#Cc1cccc(Nc2ncnc3cc4c(cc23)N(C(=O)/C=C/CN2CCC(C)CC2)CCO4)c1 | 8.30
2. C#Cc1cccc(Nc2ncnc3cc4c(cc23)N(C(=O)/C=C/CN2CCCCC2)CCO4)c1 | 8.40
3. C#Cc1cccc(Nc2ncnc3cc4c(cc23)N(C(=O)/C=C/CN2CCOCC2)CCO4)c1 | 7.92

1 = C#Cc1cccc(Nc2ncnc3cc4c(cc23)N(C(=O)/C=C/CN2CCN(C)CC2)CCO4)c1
2 = C#Cc1cccc(Nc2ncnc3cc4c(cc23)N(C(=O)/C=C/CN2CCCC2)CCO4)c1
Hi, I'm comparing 1 with 2 and wondering which one has the bigger number for pIC50. Any idea? Answer = label. 2
(2: 8.52, 1: 7.80)

I = C#Cc1cccc(Nc2ncnc3cc4c(cc23)N(C(=O)/C=C/CN(CC)CC)CCO4)c1
II = C#Cc1cccc(Nc2ncnc3cc4c(cc23)N(C(=O)/C=C/CN(C)C)CCO4)c1
// compare measured pIC50 between I and II ; output the lower one Give the label of your selection. I
(I: 8.30, II: 8.52)

====

# Tested on: A-431
# assay_remarks: cells
# Format: functional, cell-based
# experimental_context: Homo sapiens, A-431, 72 h
# Description: Cytotoxicity against human A431 cells expressing EGFR after 72 hrs by MTT assay
pIC50: −log10 of the molar value.
measurement_type: pIC50

1) C#Cc1cccc(Nc2ncnc3cc4c(cc23)N(C(=O)/C=C/CN2CCCC2)CCCO4)c1 | 5.74
2) C#Cc1cccc(Nc2ncnc3cc4c(cc23)N(C(=O)/C=C/CN2CCOCC2)CCO4)c1 | 6.28

1 = C#Cc1cccc(Nc2ncnc3cc4c(cc23)N(C(=O)/C=C/CN2CCCCC2C)CCO4)c1 (centres undefined)
2 = C#Cc1cccc(Nc2ncnc3cc4c(cc23)N(C(=O)/C=C/CN2CCCC2)CCO4)c1
Please let me know which one, 1 or 2 , has a lower measured pIC50 value. Answer = label. 1
(1: 6.16, 2: 6.96)
